assay system: GluN1-K178AzF/GluN2B receptors (UniProt P35439+Q01097)
Construct: For full-length multimeric membrane-embedded receptors studied in cellulo, as done in the present work; expressed in transfected cells; host or cells: Xenopus laevis oocytes, co-injected with amber suppressor tRNA (Yam) and AzF-RS
Sequence (Q01097 27-1482, other chains not shown): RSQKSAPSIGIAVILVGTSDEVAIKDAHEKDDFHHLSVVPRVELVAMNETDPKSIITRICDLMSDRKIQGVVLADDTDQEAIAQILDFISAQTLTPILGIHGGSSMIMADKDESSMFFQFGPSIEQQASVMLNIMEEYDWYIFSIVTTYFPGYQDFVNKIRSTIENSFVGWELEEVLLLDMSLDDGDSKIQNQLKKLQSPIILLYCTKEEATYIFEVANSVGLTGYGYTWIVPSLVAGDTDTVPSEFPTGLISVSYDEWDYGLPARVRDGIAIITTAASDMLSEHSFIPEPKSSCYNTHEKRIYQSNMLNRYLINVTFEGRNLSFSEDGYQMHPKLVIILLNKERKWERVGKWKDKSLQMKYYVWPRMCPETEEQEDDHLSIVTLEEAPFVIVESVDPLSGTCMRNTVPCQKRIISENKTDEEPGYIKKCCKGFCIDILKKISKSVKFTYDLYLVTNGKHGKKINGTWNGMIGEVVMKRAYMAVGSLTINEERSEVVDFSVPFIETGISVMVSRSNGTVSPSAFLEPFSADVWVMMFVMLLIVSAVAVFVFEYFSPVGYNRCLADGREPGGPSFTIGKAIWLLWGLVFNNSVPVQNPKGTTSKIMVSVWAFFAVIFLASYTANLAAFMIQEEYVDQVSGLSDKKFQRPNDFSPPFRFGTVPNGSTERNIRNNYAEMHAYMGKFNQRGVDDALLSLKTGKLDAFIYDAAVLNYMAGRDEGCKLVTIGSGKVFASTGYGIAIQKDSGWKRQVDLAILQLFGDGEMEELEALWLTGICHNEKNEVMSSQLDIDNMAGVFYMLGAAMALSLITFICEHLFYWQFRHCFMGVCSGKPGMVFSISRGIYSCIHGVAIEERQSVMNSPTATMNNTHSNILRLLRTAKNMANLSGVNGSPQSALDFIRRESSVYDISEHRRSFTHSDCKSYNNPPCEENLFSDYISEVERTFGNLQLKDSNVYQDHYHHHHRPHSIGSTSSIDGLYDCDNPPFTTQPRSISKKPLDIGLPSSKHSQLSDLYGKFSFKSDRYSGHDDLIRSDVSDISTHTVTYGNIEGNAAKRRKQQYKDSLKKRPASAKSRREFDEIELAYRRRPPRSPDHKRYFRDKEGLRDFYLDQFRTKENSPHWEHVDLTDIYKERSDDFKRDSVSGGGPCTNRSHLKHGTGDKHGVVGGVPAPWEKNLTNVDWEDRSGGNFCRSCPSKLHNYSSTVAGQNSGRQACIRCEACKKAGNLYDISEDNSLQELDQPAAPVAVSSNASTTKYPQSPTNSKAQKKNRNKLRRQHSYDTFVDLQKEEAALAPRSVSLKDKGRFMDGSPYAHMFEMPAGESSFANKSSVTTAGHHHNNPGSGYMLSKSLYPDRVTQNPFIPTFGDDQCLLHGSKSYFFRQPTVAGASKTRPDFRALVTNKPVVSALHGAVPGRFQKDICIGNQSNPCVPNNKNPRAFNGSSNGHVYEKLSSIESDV
experiment: TEVC recordings in Xenopus oocytes, modulator sensitivity before and after UV photocrosslinking
Format: cell-based, rat (GluN1), mouse (GluN2B)
run conditions: before UV; read-out: Zn2+ IC50
readout name: IC50 (nM)

[
  {
    "compound": "[Zn+2] [zinc]",
    "test result": 540
  }
]

----------
assay system: GluN1-K178AzF/GluN2A receptors (Rattus norvegicus, UniProt P35439+Q00959)
Construct: For full-length multimeric membrane-embedded receptors studied in cellulo, as done in the present work; expressed in transfected cells; host or cells: Xenopus laevis oocytes, co-injected with amber suppressor tRNA (Yam) and AzF-RS
Sequence (Q00959 23-1464, other chains not shown): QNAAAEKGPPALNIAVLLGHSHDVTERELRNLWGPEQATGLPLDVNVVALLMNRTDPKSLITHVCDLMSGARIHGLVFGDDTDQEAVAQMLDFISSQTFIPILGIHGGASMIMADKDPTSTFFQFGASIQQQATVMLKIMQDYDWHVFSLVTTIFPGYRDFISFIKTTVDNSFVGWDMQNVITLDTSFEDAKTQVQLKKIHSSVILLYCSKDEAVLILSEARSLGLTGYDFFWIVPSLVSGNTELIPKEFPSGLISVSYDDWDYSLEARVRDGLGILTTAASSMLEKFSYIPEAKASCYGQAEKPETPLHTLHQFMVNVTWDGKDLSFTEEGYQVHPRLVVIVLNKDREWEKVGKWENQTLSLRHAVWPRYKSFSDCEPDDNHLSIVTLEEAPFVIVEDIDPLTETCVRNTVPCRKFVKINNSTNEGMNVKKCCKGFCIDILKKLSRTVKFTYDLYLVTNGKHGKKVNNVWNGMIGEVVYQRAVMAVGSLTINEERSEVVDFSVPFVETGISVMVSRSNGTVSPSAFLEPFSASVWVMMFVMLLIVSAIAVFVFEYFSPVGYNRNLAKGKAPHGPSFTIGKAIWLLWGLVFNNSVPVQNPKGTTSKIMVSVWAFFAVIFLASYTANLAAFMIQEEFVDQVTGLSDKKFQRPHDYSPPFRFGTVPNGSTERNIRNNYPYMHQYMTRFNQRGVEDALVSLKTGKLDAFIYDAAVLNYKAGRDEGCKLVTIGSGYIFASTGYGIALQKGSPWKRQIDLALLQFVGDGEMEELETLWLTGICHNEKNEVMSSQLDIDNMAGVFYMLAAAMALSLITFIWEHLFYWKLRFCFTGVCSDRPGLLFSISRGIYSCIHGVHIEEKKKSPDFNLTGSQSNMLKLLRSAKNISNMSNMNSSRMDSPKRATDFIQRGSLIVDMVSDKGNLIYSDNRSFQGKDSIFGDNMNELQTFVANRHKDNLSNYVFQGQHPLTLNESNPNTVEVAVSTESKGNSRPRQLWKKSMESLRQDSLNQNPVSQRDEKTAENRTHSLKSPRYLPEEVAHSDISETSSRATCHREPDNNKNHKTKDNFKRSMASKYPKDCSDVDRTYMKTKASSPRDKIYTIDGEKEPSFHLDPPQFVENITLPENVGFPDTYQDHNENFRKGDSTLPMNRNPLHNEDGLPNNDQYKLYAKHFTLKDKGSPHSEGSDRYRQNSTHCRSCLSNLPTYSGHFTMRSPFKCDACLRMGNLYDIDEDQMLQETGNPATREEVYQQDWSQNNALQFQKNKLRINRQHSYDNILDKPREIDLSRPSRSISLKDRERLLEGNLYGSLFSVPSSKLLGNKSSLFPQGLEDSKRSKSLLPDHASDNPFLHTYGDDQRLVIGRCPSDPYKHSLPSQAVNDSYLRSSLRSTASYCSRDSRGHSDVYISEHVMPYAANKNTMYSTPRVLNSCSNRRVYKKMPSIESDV
experiment: TEVC recordings in Xenopus oocytes, modulator sensitivity before and after UV photocrosslinking
Assay type: cell-based
run conditions: before UV; read-out: Zn2+ IC50

[
  {
    "compound structure string": "[Zn+2]",
    "IC50": "7.43 nM"
  }
]

----------
assay system: GluN1-K178AzF/GluN2B receptors (UniProt P35439+Q01097)
Construct: For full-length multimeric membrane-embedded receptors studied in cellulo, as done in the present work; expressed in transfected cells; host or cells: Xenopus laevis oocytes, co-injected with amber suppressor tRNA (Yam) and AzF-RS
experiment: TEVC recordings in Xenopus oocytes, modulator sensitivity before and after UV photocrosslinking
Assay type: cell-based, rat (GluN1), mouse (GluN2B)
run conditions: after UV; read-out: Zn2+ IC50
pIC50: −log10 of the molar value.

[
  {
    "compound structure string": "[Zn+2]",
    "pIC50": 5.10
  }
]

----------
assay system: GluN1/GluN2A-V217C receptors (Rattus norvegicus, UniProt P35439+Q00959, V217C)
Construct: For full-length multimeric membrane-embedded receptors studied in cellulo, as done in the present work
experiment: TEVC recordings in Xenopus oocytes, zinc inhibition dose-response
run conditions: read-out: Zn2+ IC50
readout name: IC50 (nM)

[
  {
    "compound": "[Zn+2] [zinc]",
    "readout name": "IC50",
    "display unit": "nM",
    "test result": 4.64
  }
]

----------
assay system: GluN1-K178AzF/GluN2B receptors (UniProt P35439+Q01097, K178F)
Construct: For full-length multimeric membrane-embedded receptors studied in cellulo, as done in the present work; expressed in transfected cells; host or cells: Xenopus laevis oocytes, co-injected with amber suppressor tRNA (Yam) and AzF-RS
experiment: TEVC recordings in Xenopus oocytes, modulator sensitivity before and after UV photocrosslinking
Type: cell-based, rat (GluN1), mouse (GluN2B)
run conditions: after UV; pH 6.5, -30 mV; read-out: spermine EC50
pEC50: −log10 of the molar value.
readout name: pEC50

[
  {
    "compound structure string": "NCCCNCCCCNCCCN",
    "assay system": "GluN1-K178AzF/GluN2B receptors (UniProt P35439+Q01097, K178F)",
    "test result": 4.03
  }
]

----------
assay system: GluN1/GluN2B-N218C receptors (UniProt P35439+Q01097, N218C)
Construct: For full-length multimeric membrane-embedded receptors studied in cellulo, as done in the present work
Sequence (Q01097 27-1482 N218C, other chains not shown): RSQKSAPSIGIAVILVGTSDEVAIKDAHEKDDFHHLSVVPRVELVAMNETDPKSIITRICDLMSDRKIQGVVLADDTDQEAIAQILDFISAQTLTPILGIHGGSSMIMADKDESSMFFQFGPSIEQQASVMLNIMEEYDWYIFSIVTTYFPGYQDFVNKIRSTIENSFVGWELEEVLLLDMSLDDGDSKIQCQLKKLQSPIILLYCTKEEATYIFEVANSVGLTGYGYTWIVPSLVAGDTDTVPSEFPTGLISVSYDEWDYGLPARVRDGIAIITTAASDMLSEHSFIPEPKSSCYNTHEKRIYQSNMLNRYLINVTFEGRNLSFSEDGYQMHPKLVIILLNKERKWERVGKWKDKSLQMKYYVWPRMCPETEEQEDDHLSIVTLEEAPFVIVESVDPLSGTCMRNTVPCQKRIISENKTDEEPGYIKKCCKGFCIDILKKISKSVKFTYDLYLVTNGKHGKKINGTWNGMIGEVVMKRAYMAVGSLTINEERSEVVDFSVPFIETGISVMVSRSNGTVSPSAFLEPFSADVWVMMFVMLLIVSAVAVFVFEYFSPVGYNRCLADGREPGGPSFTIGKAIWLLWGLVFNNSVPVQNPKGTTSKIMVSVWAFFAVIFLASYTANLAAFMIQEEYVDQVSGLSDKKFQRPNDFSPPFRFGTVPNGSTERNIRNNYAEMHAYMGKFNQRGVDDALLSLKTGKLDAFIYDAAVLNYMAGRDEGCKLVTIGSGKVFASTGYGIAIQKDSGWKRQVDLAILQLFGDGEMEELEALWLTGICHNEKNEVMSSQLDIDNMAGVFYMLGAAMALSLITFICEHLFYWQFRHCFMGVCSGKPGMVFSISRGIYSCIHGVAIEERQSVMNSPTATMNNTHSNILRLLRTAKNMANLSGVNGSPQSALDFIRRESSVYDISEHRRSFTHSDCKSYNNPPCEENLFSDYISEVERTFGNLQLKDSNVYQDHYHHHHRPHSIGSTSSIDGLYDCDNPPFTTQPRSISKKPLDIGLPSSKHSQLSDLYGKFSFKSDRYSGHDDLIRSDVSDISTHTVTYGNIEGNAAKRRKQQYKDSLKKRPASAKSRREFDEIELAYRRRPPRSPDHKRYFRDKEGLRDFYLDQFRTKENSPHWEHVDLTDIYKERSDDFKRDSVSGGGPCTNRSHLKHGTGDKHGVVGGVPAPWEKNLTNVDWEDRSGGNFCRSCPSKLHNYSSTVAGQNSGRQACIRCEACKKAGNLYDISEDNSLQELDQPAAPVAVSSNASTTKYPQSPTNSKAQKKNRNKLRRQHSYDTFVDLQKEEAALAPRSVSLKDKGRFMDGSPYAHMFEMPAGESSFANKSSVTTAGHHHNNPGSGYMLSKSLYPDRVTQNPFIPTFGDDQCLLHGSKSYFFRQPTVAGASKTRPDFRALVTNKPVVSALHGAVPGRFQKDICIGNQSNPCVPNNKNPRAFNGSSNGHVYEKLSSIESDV
experiment: TEVC recordings in Xenopus oocytes, zinc and ifenprodil inhibition dose-response
run conditions: read-out: Zn2+ IC50
pIC50: −log10 of the molar value.

[
  {
    "compound structure string": "[Zn+2]",
    "assay system": "GluN1/GluN2B-N218C receptors (UniProt P35439+Q01097, N218C)",
    "pIC50": 5.51
  }
]
